tested on: gastric secretion; experiment: Anti-secretive activity in the rat with lig. pylorus, iv; format: in vivo; settings: rat with lig. pylorus, iv (Table 1); read-out: Activity A: anti-secretive activity ED50
Counter-ions that a name gives are not always drawn.
Catalogue of ED50 values
Your answer should be a plain number; it is taken to be in mg/kg.

IN: Can you look up the measured ED50 of COc1ccc(C(=O)N[C@@H](Cc2c[nH]c3ccccc23)C(=O)O)cc1 [Ex.26 (CR507), N-p-methoxy-benzoyl-L-tryptophane] for me?
OUT: 437

IN: Now give it for O=C(N[C@@H](Cc1c[nH]c2ccccc12)C(=O)O)c1ccc(Cl)cc1 [Ex.18 (CR501), N-p-chloro-benzoyl-L-tryptophane] too.
OUT: 139

IN: Now give it for CCOC(=O)c1ccc(NC(=O)[C@H](Cc2c[nH]c3ccccc23)NC(=O)c2ccccc2)cc1 [Ex.37 (CR402)] too.
OUT: 310

IN: Now give it for O=C(N[C@@H](Cc1c[nH]c2ccccc12)C(=O)O)OCc1c(Cl)cccc1Cl [Ex.14 (CR495)] too.
OUT: 132

IN: Now give it for O=C(Cc1ccc(Cl)cc1)N[C@@H](Cc1c[nH]c2ccccc12)C(=O)O [Ex.47 (CR584), N-p-chlorophenylacetyl-L-tryptophane] too.
OUT: 487

IN: Now give it for O=C(N[C@@H](Cc1c[nH]c2ccccc12)C(=O)O)OCc1cccc2ccccc12 [Ex.31 (CR514)] too.
OUT: 128

IN: Now give it for CN(C)CCOC(=O)[C@H](Cc1c[nH]c2ccccc12)NC(=O)OCc1ccc(Cl)cc1 [Ex.48 (CR583), hydrochloride] too.
OUT: 170

IN: Now give it for COc1ccc(COC(=O)N[C@@H](Cc2c[nH]c3ccccc23)C(=O)O)cc1 [Ex.32 (CR462), N-p-methoxy-carbobenzoxy-L-tryptophane] too.
OUT: 146

IN: Now give it for O=C(O)c1ccc(C(=O)N[C@@H](Cc2c[nH]c3ccccc23)C(=O)O)cc1 [Ex.27 (CR508), N-p-carboxy-benzoyl-L-tryptophane] too.
OUT: 514

IN: Now give it for O=C(N[C@@H](Cc1c[nH]c2ccccc12)C(=O)O)OCc1ccc(Cl)cc1Cl [Ex.13 (CR470)] too.
OUT: 130

IN: Now give it for O=C(O)Cc1ccc(NC(=O)[C@H](Cc2c[nH]c3ccccc23)NC(=O)c2ccccc2)cc1 [Ex.41 (CR421)] too.
OUT: 322

IN: Now give it for O=C(N[C@@H](Cc1c[nH]c2ccccc12)C(=O)O)OCc1cccc(Cl)c1Cl [Ex.15 (CR499)] too.
OUT: 100

IN: Now give it for CCOC(=O)c1ccc(NC(=O)[C@H](Cc2c[nH]c3ccccc23)NC(=O)OCc2ccccc2)cc1 [Ex.33 (CR401)] too.
OUT: 470

IN: Now give it for O=C(N[C@@H](Cc1c[nH]c2ccccc12)C(=O)O)c1ccc([N+](=O)[O-])cc1 [Ex.29 (CR502)] too.
OUT: 339

IN: Now give it for O=C(N[C@H](Cc1c[nH]c2ccccc12)C(=O)O)c1ccccc1Cl [Ex.52 (CR637), N-o-chlorobenzoyl-D-tryptophane] too.
OUT: 440

IN: Now give it for O=C(Cc1ccc(NC(=O)[C@H](Cc2c[nH]c3ccccc23)NC(=O)OCc2ccccc2)cc1)OCc1ccccc1 [Ex.39 (CR419)] too.
OUT: 430

IN: Now give it for Nc1ccc(C(=O)N[C@@H](Cc2c[nH]c3ccccc23)C(=O)O)cc1 [Ex.28 (CR504), N-p-amino-benzoyl-L-tryptophane] too.
OUT: 960

IN: Now give it for O=C(N[C@@H](Cc1c[nH]c2ccccc12)C(=O)Nc1ccc(C(=O)O)cc1)OCc1ccccc1 [Ex.43 (CR422)] too.
OUT: 321

IN: Now give it for O=C(N[C@@H](Cc1c[nH]c2ccccc12)C(=O)Nc1ccc(C(=O)Oc2ccc(Cl)cc2Cl)cc1)OCc1ccccc1 [Ex.34 (CR432)] too.
OUT: 370

IN: Now give it for O=C(N[C@@H](Cc1c[nH]c2ccccc12)C(=O)Nc1ccc(C(=O)OCc2ccccc2)cc1)OCc1ccccc1 [Ex.36 (CR430)] too.
OUT: 690

IN: Now give it for O=C(N[C@@H](Cc1c[nH]c2ccccc12)C(=O)O)OCc1ccc([N+](=O)[O-])cc1 [Ex.12 (CR438), N-p-nitro-carbobenzoxy-L-tryptophane] too.
OUT: 267
